# System: OVCAR-5 ovarian
# test_protocol: NCI tumour cell line growth inhibition, 48 h
measure_name: TGI

>>> observed("COc1cc(C(=O)c2cc(C)c3[nH]c4ccc(Cl)cc4c3c2C)cc(OC)c1OC")
"18 µM"
>>> observed("COc1ccc2nc3ccc(OC)cc3c(S(=O)CCCl)c2c1 (stereo not drawn)")
"34.5 µM"
>>> observed("C=C(C=O)[C@@H]1C2OC(=O)C(=C)[C@@H]2CC(O)[C@@]1(C)CC (stereo partly drawn)")
"32 µM"
>>> observed("C=CC1CC12C(=O)C1OC2(C)C2C(=O)c3cc4ccccc4cc3C(=O)C12 (stereo not drawn)")
"> 100 µM"
>>> observed("CNc1ccc(OC)cc1S(=O)(=O)c1ccccc1[N+](=O)[O-]")
"> 100 µM"
>>> observed("O=[N+]([O-])c1ccc(C=C2C(Cl)=C(Cl)C(Cl)=C2Cl)cc1")
"> 100 µM"
>>> observed("CC[N+](CC)(CCNCC(N)=O)CC(N)=O")
"> 10 µM"
>>> observed("CC(=O)Nc1ccc(C(=O)NN2C(=O)C(Cl)C2c2ccccc2)cc1 (stereo not drawn)")
"> 100 µM"
>>> observed("C=C(F)C(=O)N1CCN(c2nc(OC[C@@H]3CCCN3C)nc3c2CCN(c2cccc4cccc(Cl)c24)C3)C[C@@H]1CC#N")
"2.56 µM"
>>> observed("NC(CCCCP(=O)(O)O)C(=O)O (stereo not drawn)")
"> 100 µM"
>>> observed("CNC(=S)NC1CCCCC1NC(=S)NC (stereo not drawn)")
"> 100 µM"
>>> observed("CC1OC2CC(=O)OC2C2=C1C(=O)c1c(O)cccc1C2=O (stereo not drawn)")
"0.44 µM"
>>> observed("CS(=O)(=O)N/N=C/CN1C(=O)c2ccccc2C1=O")
"> 100 µM"
>>> observed("CC(=O)c1c2c(cc3c1CC1(Cc4ccccc4C1=O)C3)CCC2 (stereo not drawn)")
"> 100 µM"
>>> observed("NC(=O)C(N)Cc1ccc(O)cn1 (stereo not drawn)")
"> 100 µM"
>>> observed("COc1ccc(C2S/C(=C\\c3ccccc3O)C(=O)N2NC(=O)Cc2ccccc2)cc1 (stereo not drawn)")
"> 100 µM"
>>> observed("Clc1ccc2c(NCCCNc3nccc(Nc4ccc(Br)cc4)n3)ccnc2c1")
"3.18 µM"
>>> observed("CCOc1nc(-c2ccccc2)cc2c(O)c(-c3nnco3)[nH]c(=O)c12")
"> 100 µM"
>>> observed("CNn1c(-c2ccccc2)n[nH]c1=O")
"> 100 µM"
>>> observed("O=C(OC(=O)n1ccc2ccccc21)n1ccc2ccccc21")
"> 100 µM"
>>> observed("S=C(c1c[nH]c2ccccc12)N1CCOCC1")
"> 100 µM"
>>> observed("CSc1nc2c(nc(C)c(=O)n2C2OCC(OC(C)=O)C(OC(C)=O)C2OC(C)=O)c(=O)[nH]1 (stereo not drawn)")
"> 100 µM"
>>> observed("O=[N+]([O-])c1ccccc1S(=O)(=O)c1cc(Cl)cc2c1NCCC2")
"> 100 µM"

====

# Test system: TK-10 renal
# test_protocol: NCI tumour cell line growth inhibition, 48 h
Reported TGI values follow for various compounds
measure_name: TGI

>>> observed("O=c1nc2occc2cn1C1CC(O)C(CO)O1 (centres undefined)")
"> 100 µM"
>>> observed("CC(=O)Nc1cc(C(=O)Nc2cc(C(=O)N3CC(CCl)c4c3cc(N)c3ccccc43)nn2C)nn1C (centres undefined)")
"> 100 µM"
>>> observed("COc1cc(/C=C2\\CCC(C)C3C2=NN(C(C)=O)C3c2cc(OC)c(OC)c(OC)c2)cc(OC)c1OC (centres undefined)")
"> 100 µM"
>>> observed("CC(C)C1OC23CCCCC2C(C#N)(C#N)C1(C#N)C(=N)O3 (centres undefined)")
"48.4 µM"
>>> observed("O=C(c1ccccc1)c1cc(Cl)ccc1OCCCCN1CCN(CCCCOc2ccc(Cl)cc2C(=O)c2ccccc2)CC1")
"17 µM"
>>> observed("CCCCOC(=O)C1C(c2ccc(Cl)cc2)NC(c2ccc(Cl)cc2)C(C(=O)OCCCC)S1(=O)=O (centres undefined)")
"> 100 µM"
>>> observed("O/N=C1/COC(C(F)(F)F)(C(F)(F)F)C1")
"> 100 µM"
>>> observed("COC(=O)C(C)(NC(=O)C(CC(=O)OC(C)(C)C)NC(=O)OC(C)(C)C)c1ccccc1 (centres undefined)")
"> 100 µM"
>>> observed("CN(c1ccc(Cl)cc1)S(=O)(=O)c1ccc([N+](=O)[O-])cc1")
"> 100 µM"

====

# System: DU-145 prostate
# test_protocol: NCI tumour cell line growth inhibition, 48 h; in the data active means GI50 below about 0.43 µM; inactive means the rest
Outcomes: 1 (active), -1 (inactive)

>>> label_value("COc1ccc(C(=O)c2cc(OC)c(C)c(OC)c2)cc1OC(=O)CCl")
1
>>> label_value("COc1cc(C(=O)c2cc(C)c3[nH]c4ccc(Cl)cc4c3c2C)cc(OC)c1OC")
1
>>> label_value("Ic1ccc(Nc2nc3nonc3nc2Nc2ccc(I)cc2)cc1")
1
>>> label_value("CCOC(=O)/C=C/C(C(=O)/C=C/c1ccc(OC2CCCCO2)c(OC)c1)=C(O)\\C=C\\c1ccc(OC2CCCCO2)c(OC)c1 (stereo not given)")
-1
>>> label_value("COc1ccc(N(C)c2ncnc3occ(C)c23)cc1")
1
>>> label_value("CC(=O)OC1Oc2ccccc2-c2oc(=O)c(-c3cc(=O)oc4cc(O)ccc34)cc21 (stereo not given)")
-1
>>> label_value("C[C@H]1c2cccc(O)c2C(O)=C2C(=O)[C@]3(O)C(O)=C(C(N)=O)C(=O)[C@@H](N(C)C)[C@@H]3[C@@H](O)[C@@H]21")
-1
>>> label_value("CC(C)c1ccc(Nc2ccc3c(OCCCN4CCN(C)CC4)cccc3n2)cc1")
-1
>>> label_value("CCN1CCN(c2ccc(Nc3cc(N(C)C(=O)Nc4c(Cl)c(OC)cc(OC)c4Cl)ncn3)cc2)CC1")
-1
>>> label_value("C=C(C=O)C1CCC2(C(=O)O)CCC3(C)C(CCC4C5(C)CCC(O)C(C)(C)C5CCC43C)C12 (stereo not given)")
-1

====

# System: HCT-15 colon
# test_protocol: NCI tumour cell line growth inhibition, 48 h; in the data active = GI50 below about 0.43 µM; inactive = the rest
Outcomes: y for active, n for inactive

>>> label_value("C/C1=C\\CC[C@@]2(C)O[C@@H]2[C@H]2OC(=O)[C@@H](CN(C)C)[C@@H]2CC1")
"n"
>>> label_value("Oc1ccc(Cl)cc1Cc1cc(Cl)cc(Cl)c1O")
"n"
>>> label_value("CC1OC2CC(=O)OC2C2=C1C(=O)c1c(O)cccc1C2=O (centres undefined)")
"y"
>>> label_value("COc1ccc2c(c1)CCC1C2CC[C@@]2(C)C1CC1=CC(COC(C)=O)C3C(=O)c4ccccc4C(=O)C3C12 (some centres undefined)")
"n"
>>> label_value("O=C(OCc1ccc2cccc(O)c2n1)N1CCN(C(=O)c2cc3cc(F)ccc3[nH]2)CC1")
"n"
>>> label_value("Clc1ccc2c(NCCCNc3nccc(Nc4ccc(Br)cc4)n3)ccnc2c1")
"n"
>>> label_value("CCN1CCN(c2ccc(Nc3cc(N(C)C(=O)Nc4c(Cl)c(OC)cc(OC)c4Cl)ncn3)cc2)CC1")
"n"
>>> label_value("NC(=NCCCOc1ccc(Cl)cc1)Nc1ccc(C(F)(F)F)cc1")
"n"
>>> label_value("C=C(F)C(=O)N1CCN(c2nc(OC[C@@H]3CCCN3C)nc3c2CCN(c2cccc4cccc(Cl)c24)C3)C[C@@H]1CC#N")
"n"

====

# System: RPMI-8226 leukemia
# test_protocol: NCI tumour cell line growth inhibition, 48 h; in the data active = GI50 below about 0.43 µM; inactive = the rest
Outcomes: active, inactive

>>> label_value("C[As](C)SC1OC(CO)C(O)C1O (stereo not given)")
"active"
>>> label_value("COc1ncnc(C2CC2)c1-c1ncc2cnn(Cc3ccc(-c4nc(C(F)(F)F)cn4C(C)C)cc3)c2n1")
"inactive"
>>> label_value("Cc1ccc(C(SCC(N)C(=O)O)(c2ccccc2)c2ccc(C)cc2)cc1 (stereo not given)")
"active"
>>> label_value("NC(=NCCCOc1ccc(Cl)cc1)Nc1ccc(C(F)(F)F)cc1")
"inactive"
>>> label_value("COc1cc(C(=O)c2cc(C)c3[nH]c4ccc(Cl)cc4c3c2C)cc(OC)c1OC")
"active"
>>> label_value("CNCCCn1cc(C2=C(c3cn(C)c4ccccc34)C(=O)NC2=O)c2ccccc21")
"inactive"
>>> label_value("O=C(OCc1ccc2cccc(O)c2n1)N1CCN(C(=O)c2cc3cc(F)ccc3[nH]2)CC1")
"active"
>>> label_value("Cc1c2cccnc2c(C)c2c1c1cc(CO)ccc1n2C")
"inactive"
>>> label_value("CCC[CH2][Sn]([CH2]CCC)([CH2]CCC)[O]C(=O)CC")
"active"
>>> label_value("O=S(=O)(Nc1cc(F)cc(Cl)c1)c1ccc(-c2cnc(C3CC3)o2)cc1")
"inactive"
